B1: SMOC2 (parent)
chain: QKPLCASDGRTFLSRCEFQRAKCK

- Variants of: B1
- measurementProtocol: protein stability index of a GFP-peptide fusion (GPS, HEK-293T) (PSI 1-6); higher = more stable;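 further: lentivirally expressed fusions sorted by FACS into six bins by GFP to DsRed ratio, PSI derived from sequencing read proportions per bin multiplied by bin number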
- details: c terminus: a fixed tail appended
reportedEndpoint: protein stability index
Answer field: number only, no words.

Query: Which measured protein stability index value corresponds to QKPLCASDGRTFLSRCEFQRCKCK [A21C] ?
Reply: 3.48

Query: Okay, and QKPLCASDGRTFLSRIEFQRAKCK [C16I] ?
Reply: 1.79

Query: Okay, and QKPLCASDGRTFLSRCEFQRAKCM [K24M] ?
Reply: 2.62

Query: Okay, and QKPLCASDGRTFLSPCEFQRAKCK [R15P] ?
Reply: 4.64

Query: Okay, and QKPLCASDGRCFLSRCEFQRAKCK [T11C] ?
Reply: 2.05

Query: Okay, and QKPLCASDGRTFLSWCEFQRAKCK [R15W] ?
Reply: 3.32

Query: Okay, and QKPLCASDGRTFLSRCEFWRAKCK [Q19W] ?
Reply: 1.55

Query: Okay, and QKPLCASDGRTFLSRCEFQRDKCK [A21D] ?
Reply: 3.17

Query: Okay, and QKKLCASDGRTFLSRCEFQRAKCK [P3K] ?
Reply: 2.42

Query: Okay, and QKPLCGSDGRTFLSRCEFQRAKCK [A6G] ?
Reply: 2.38

Query: Okay, and QKPLCAEDGRTFLSRCEFQRAKCK [S7E] ?
Reply: 2.86

Query: Okay, and QKPLCASDGLTFLSRCEFQRAKCK [R10L] ?
Reply: 3.04

Query: Okay, and QKPLCASDGRYFLSRCEFQRAKCK [T11Y] ?
Reply: 2.03

Query: Okay, and QKPLCASDGRTFLSYCEFQRAKCK [R15Y] ?
Reply: 3.09

Query: Okay, and QKPLCASDGRTFLSRCEFQNAKCK [R20N] ?
Reply: 3.1

Query: Okay, and QKALCASDGRTFLSRCEFQRAKCK [P3A] ?
Reply: 2.36

Query: Okay, and QKPLCASDGRTFLSRCERQRAKCK [F18R] ?
Reply: 4.37

Query: Okay, and QKPLTASDGRTFLSRCEFQRAKCK [C5T] ?
Reply: 3.41

Query: Okay, and QKPLCASDGRTFLSRCEFCRAKCK [Q19C] ?
Reply: 3.48

Query: Okay, and QKPLCASDGRTFLSRCEFQAAKCK [R20A] ?
Reply: 3.14

Query: Okay, and QKPVCASDGRTFLSRCEFQRAKCK [L4V] ?
Reply: 2.52

Query: Okay, and QKPLCASDGRTFLSRCEPQRAKCK [F18P] ?
Reply: 3.49

Query: Okay, and KKPLCASDGRTFLSRCEFQRAKCK [Q1K] ?
Reply: 3.41

Query: Okay, and QKPLCASDGRTPLSRCEFQRAKCK [F12P] ?
Reply: 4

Query: Okay, and QKPLCASDGRTFLSACEFQRAKCK [R15A] ?
Reply: 3.65

Query: Okay, and QKPLCAMDGRTFLSRCEFQRAKCK [S7M] ?
Reply: 1.67

Query: Okay, and QKPLCQSDGRTFLSRCEFQRAKCK [A6Q] ?
Reply: 3.21

Query: Okay, and QKPLCASDGRTFLSRCEFQRAKKK [C23K] ?
Reply: 4.07

Query: Okay, and QKPLCASDGRTFLSREEFQRAKCK [C16E] ?
Reply: 4.62

Query: Okay, and QKPLCASDGRTFLSRREFQRAKCK [C16R] ?
Reply: 4.44

Query: Okay, and QKPLCKSDGRTFLSRCEFQRAKCK [A6K] ?
Reply: 2.82

Query: Okay, and QIPLCASDGRTFLSRCEFQRAKCK [K2I] ?
Reply: 3.51

Query: Okay, and QKPLCASDGRTFLSRCEFDRAKCK [Q19D] ?
Reply: 3.83

Query: Okay, and QKPLCASDGRNFLSRCEFQRAKCK [T11N] ?
Reply: 3.06

Query: Okay, and QKPLCASDGRTFLSRWEFQRAKCK [C16W] ?
Reply: 2.89

Query: Okay, and EKPLCASDGRTFLSRCEFQRAKCK [Q1E] ?
Reply: 3.39

Query: Okay, and QKPLCASDGRTFLSRCDFQRAKCK [E17D] ?
Reply: 2.11

Query: Okay, and QKPLAASDGRTFLSRCEFQRAKCK [C5A] ?
Reply: 3.31

Query: Okay, and QKPLCASDGRTFLSRCEFPRAKCK [Q19P] ?
Reply: 3.28

Query: Okay, and QKPLCASDGRRFLSRCEFQRAKCK [T11R] ?
Reply: 2.52

Query: Okay, and QKPLCYSDGRTFLSRCEFQRAKCK [A6Y] ?
Reply: 2.71

Query: Okay, and QKPLCASDGRTWLSRCEFQRAKCK [F12W] ?
Reply: 2.34

Query: Okay, and QKTLCASDGRTFLSRCEFQRAKCK [P3T] ?
Reply: 2.81

Query: Okay, and QKPLCADDGRTFLSRCEFQRAKCK [S7D] ?
Reply: 3.36

Query: Okay, and QKPLCASDGRTFLSRCEFQRAKQK [C23Q] ?
Reply: 3.91

Query: Okay, and QKPLCASNGRTFLSRCEFQRAKCK [D8N] ?
Reply: 2.77
